- target.or.system: human JAK2 (a.a. 828-1132) (Homo sapiens)
- Construct: JAK2 (a.a. 828-1132); His tag (N); made in house; host or cells: insect cells (baculovirus)
- Sequence (O60674 828-1132): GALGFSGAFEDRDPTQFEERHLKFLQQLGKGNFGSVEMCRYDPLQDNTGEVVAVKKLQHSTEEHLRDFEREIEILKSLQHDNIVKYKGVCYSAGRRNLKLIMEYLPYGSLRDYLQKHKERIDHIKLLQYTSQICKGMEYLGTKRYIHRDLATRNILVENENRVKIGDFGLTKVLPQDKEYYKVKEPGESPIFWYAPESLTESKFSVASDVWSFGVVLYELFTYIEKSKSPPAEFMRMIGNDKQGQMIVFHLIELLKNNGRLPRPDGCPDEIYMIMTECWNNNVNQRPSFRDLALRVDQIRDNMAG
- experiment.notes: In vitro JAK kinase assay (HTRF, phosphorylation of a biotinylated peptide), JAK2
- Type: biochemical
- test.parameters: method AA1 (30 μM ATP) or AA2 (1000 μM ATP), not stated per value
pIC50: −log10 of the molar value. Counter-ions that a name gives are not always drawn.
Entries get a class label from measured pIC50. See ranges: LOW (below 7), MEDIUM (7 to below 8), HIGH (8 or more)

These recorded examples may help you get a feel for the data.
IN: Place this compound in its band: O=C(CC1CCN(C(=O)NCc2ccccc2)CC1)Nc1ccc2cc1CCc1cncc(c1)Nc1ncc(Cl)c(n1)N2 [Example A155, bis(trifluoroacetate)]
OUT: HIGH

IN: Next entry: O=C(CC1CCN(S(=O)(=O)c2ccccc2C(F)(F)F)CC1)Nc1ccc2cc1CCc1cncc(c1)Nc1ncc(Cl)c(n1)N2 [Example A224, bis(trifluoroacetate)]
OUT: LOW

IN: Next entry: O=C(Nc1ccc2cc1CCc1cccc(c1)Nc1ncc(Cl)c(n1)N2)[C@@H]1CCN(C(=O)Nc2ccccc2)C1 [Example A54, trifluoroacetate]
OUT: HIGH

IN: Next entry: N#Cc1ccc(S(=O)(=O)N2CCC(CC(=O)Nc3ccc4cc3CCc3cncc(c3)Nc3ncc(Cl)c(n3)N4)CC2)cc1 [Example A199, bis(trifluoroacetate)]
OUT: LOW

---
IN: Place this compound in its band: Cc1ccc(NC(=O)N2CCC(CC(=O)Nc3ccc4cc3CCc3cncc(c3)Nc3ncc(Cl)c(n3)N4)CC2)cc1 [Example A151, bis(trifluoroacetate)]
OUT: HIGH

IN: Next entry: O=C(COc1ccc2cc1CCc1cccc(c1)Nc1ncc(Cl)c(n1)N2)Nc1ccccc1 [Example A18, trifluoroacetate]
OUT: HIGH

IN: Next entry: CNC(=O)N1CCC(CC(=O)Nc2ccc3cc2CCc2cncc(c2)Nc2ncc(Cl)c(n2)N3)C1 (stereo not drawn) [Example A93, bis(trifluoroacetate)]
OUT: MEDIUM

IN: Next entry: O=C(CC1CCN(c2nncs2)CC1)Nc1ccc2cc1CCc1cccc(c1)Nc1ncc(Cl)c(n1)N2 [Example A183, bis(trifluoroacetate)]
OUT: MEDIUM

IN: Next entry: O=C(CC1CCN(c2ncccn2)CC1)Nc1ccc2cc1CCc1cncc(c1)Nc1ncc(Cl)c(n1)N2 [Example A172, tris(trifluoroacetate)]
OUT: LOW

IN: Next entry: COc1ccc(NC(=O)N2CCC(CC(=O)Nc3ccc4cc3CCc3cncc(c3)Nc3ncc(Cl)c(n3)N4)CC2)cc1 [Example A154, bis(trifluoroacetate)]
OUT: HIGH

IN: Next entry: O=C(CC1CCN(C(=O)c2nc[nH]n2)CC1)Nc1ccc2cc1CCc1cncc(c1)Nc1ncc(Cl)c(n1)N2 [Example A136, bis(trifluoroacetate)]
OUT: HIGH
